Data provenance: ChEMBL document CHEMBL2321772

# assayRemarks: Clearance in rat
# Assay type: ADME, organism-based
# runParameters: in vivo
readoutName: clearance (mL/min/kg)
# value in mL/min/kg; strip the unit string

Problem: What value of measured clearance is listed for NC1(C(=O)NCc2ccc(Cl)cc2)CCN(c2ncnc3[nH]ccc23)CC1 ?
Result: 48

###

# assayRemarks: physchem
# runParameters: octanol/water
Quick reference for logD among some compounds
When you answer, write just the number.

Problem: What value of measured logD is listed for NC1(C(=O)NC(CCCN2CCCC2)c2ccc(Cl)cc2)CCN(c2ncnc3[nH]ccc23)CC1 (racemic) ?
Result: 1.3

Problem: // query: NC1(C(=O)N[C@@H](CCN2CCCCC2)c2ccc(Cl)cc2)CCN(c2ncnc3[nH]ccc23)CC1 (racemic)
Result: 2.4

Problem: // query: CC(NC(=O)C1(N)CCN(c2ncnc3[nH]ccc23)CC1)c1ccccc1 (racemic)
Result: 2.2

Problem: // query: NC1(C(=O)NC(CCCO)c2ccc(Cl)cc2)CCN(c2ncnc3[nH]ccc23)CC1 (racemic)
Result: 2.8

Problem: // query: CS(=O)(=O)NCCC(NC(=O)C1(N)CCN(c2ncnc3[nH]ccc23)CC1)c1ccc(Cl)cc1 (racemic)
Result: 2.2

Problem: // query: CC(NC(=O)C1(N)CCN(c2ncnc3[nH]ccc23)CC1)c1ccc(S(C)(=O)=O)cc1 (racemic)
Result: 1

Problem: // query: NC1(C(=O)NC(CS(N)(=O)=O)c2ccc(Cl)cc2)CCN(c2ncnc3[nH]ccc23)CC1 (racemic)
Result: 2.2

Problem: // query: NC1(C(=O)NC(CCCN2CCOCC2)c2ccc(Cl)cc2)CCN(c2ncnc3[nH]ccc23)CC1 (racemic)
Result: 2.7

Problem: // query: CCC(NC(=O)C1(N)CCN(c2ncnc3[nH]ccc23)CC1)c1ccc(Cl)cc1 (racemic)
Result: 3.5

Problem: // query: CC(NC(=O)C1(N)CCN(c2ncnc3[nH]ccc23)CC1)c1ccc(F)cc1 (racemic)
Result: 2.4

Problem: // query: CC(NC(=O)C1(N)CCN(c2ncnc3[nH]ccc23)CC1)c1ccccn1 (racemic)
Result: 1.3

Problem: // query: COc1ccc(C(C)NC(=O)C2(N)CCN(c3ncnc4[nH]ccc34)CC2)cc1OC (racemic)
Result: 1.8

Problem: // query: CS(=O)(=O)NCC(NC(=O)C1(N)CCN(c2ncnc3[nH]ccc23)CC1)c1ccc(Cl)cc1 (racemic)
Result: 2.1

Problem: // query: COCCC(NC(=O)C1(N)CCN(c2ncnc3[nH]ccc23)CC1)c1ccc(Cl)cc1 (racemic)
Result: 3

Problem: // query: NC1(C(=O)NC(c2ccc(Cl)cc2)C2CC2)CCN(c2ncnc3[nH]ccc23)CC1 (racemic)
Result: 3.4

Problem: // query: NC(=O)C(NC(=O)C1(N)CCN(c2ncnc3[nH]ccc23)CC1)c1ccc(Cl)cc1 (racemic)
Result: 2.2

Problem: // query: NC1(C(=O)NC(CO)c2ccc(Cl)cc2)CCN(c2ncnc3[nH]ccc23)CC1 (racemic)
Result: 2.4
